System: Staphylococcus aureus ATCC 33591
Assay: MIC by micro-broth dilution, S. aureus ATCC 33591
Format: cell-based
Conditions: Staphylococcus aureus, ATCC33591; ATCC 33591; 24 hours; read-out: MIC99
Parameter: MIC99

Before answering, review these 2 worked examples.
O=C1C2=C(CCN(Cc3ccccc3)C2)N2CCN=C2N1Cc1ccc(F)cc1F [ONC206] = > 100 µg/mL
Cc1ccccc1CN1C2=NCCN2C(=O)C2=C1CCN(Cc1ccccc1)C2 [TIC-10] = > 100 µg/mL

Turning now to a further compound:
Prompt: Determine its reported MIC99: COc1cccc(OC)c1C(=O)N[C@@H]1C(=O)N2[C@@H]1SC(C)(C)[C@@H]2C(=O)O [Methicillin, reference compound]
Completion: > 100 µg/mL
